Listed next: entries and their corresponding IC50.
- System: 439559-082-T-J2-PDC spheroid viability
- TEST SUMMARY: Anticancer human tumor 439559-082-T-J2-PDC patient-derived colon adenocarcinoma cell line growth inhibition [POLQ]
- RECORDED CONDITIONS: curve of first compound; second compound 3.16 µM; spheroids with HUVEC and MSC

Some solved entries appear below for comparison.
>  <MOLECULE>
CCc1cc2c(N3CCc4c(cc(Cn5ccnc5)cc4-c4cn(C)nc4C(F)(F)F)C3=O)cc(C)nc2c(OC)n1 + COC1C(OC(N)=O)C(O)C(Oc2ccc3c(O)c(NC(=O)c4ccc(O)c(CC=C(C)C)c4)c(=O)oc3c2C)OC1(C)C

>  <VAL>
> 10 µM

$$$$
>  <MOLECULE>
Cn1ncnc1[C@H]1c2n[nH]c(=O)c3cc(F)cc(c23)N[C@@H]1c1ccc(F)cc1 + COC1C(OC(N)=O)C(O)C(Oc2ccc3c(O)c(NC(=O)c4ccc(O)c(CC=C(C)C)c4)c(=O)oc3c2C)OC1(C)C

>  <VAL>
> 0.1 µM

$$$$
>  <MOLECULE>
CC[C@@]1(O)C(=O)OCc2c1cc1n(c2=O)Cc2cc3c(CN(C)C)c(O)ccc3nc2-1 + Cc1cccc(N(C)C(=O)C2C(O)CCN2c2nc(C)cc(C(F)(F)F)c2C#N)c1

>  <VAL>
> 0.1 µM

$$$$
>  <MOLECULE>
COc1cc2cc(C(=O)CCC(=O)O)sc2cc1OC + COC1C(OC(N)=O)C(O)C(Oc2ccc3c(O)c(NC(=O)c4ccc(O)c(CC=C(C)C)c4)c(=O)oc3c2C)OC1(C)C

>  <VAL>
> 10 µM

$$$$

Turning now to a further molecule:
Entry C#Cc1c(F)ccc2cc(O)cc(-c3ncc4c(N5CC6CCC(C5)N6)nc(OCC56CCCN5CC(F)C6)nc4c3F)c12 (stereo not given) + Cc1cccc(N(C)C(=O)C2C(O)CCN2c2nc(C)cc(C(F)(F)F)c2C#N)c1 — recorded IC50 = > 10 µM

----------
- System: 439559-082-T-J2-PDC spheroid viability
- TEST SUMMARY: Anticancer human tumor 439559-082-T-J2-PDC cell line growth inhibition [POLQ];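 note: spheroids exposed to compounds for seven days before readout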
- RECORDED CONDITIONS: curve of first compound; second compound 3.16 µM; spheroids with HUVEC and MSC
READOUT KIND: pIC50
// pIC50: -log10(molar conc.)

Some solved entries appear below for comparison.
>  <MOLECULE>
COc1cccc2c1C(=O)c1c(O)c3c(c(O)c1C2=O)CC(O)(C(=O)CO)CC3OC1CC(N)C(O)C(C)O1 (stereo not given) + Cc1cccc(N(C)C(=O)C2C(O)CCN2c2nc(C)cc(C(F)(F)F)c2C#N)c1

>  <pIC50>
5.01

$$$$
>  <MOLECULE>
CCc1c2c(nc3ccc(O)cc13)-c1cc3c(c(=O)n1C2)COC(=O)[C@]3(O)CC + Nc1ccc(C#CCN(C(=O)Cc2ncc(C(F)(F)F)cc2C(F)(F)F)c2ccc(F)cc2)nn1

>  <pIC50>
6.06

$$$$

Kindly note: 439559-082-T-J2-PDC spheroid viability, CC1COCCN1c1cc(-c2ccnn2C)c2ccnc(-c3ccn[nH]3)c2n1 (stereo not given) + COC1C(OC(N)=O)C(O)C(Oc2ccc3c(O)c(NC(=O)c4ccc(O)c(CC=C(C)C)c4)c(=O)oc3c2C)OC1(C)C , pIC50 value reported: 6.56

Kindly note: 439559-082-T-J2-PDC spheroid viability, CC(=O)O[C@H]1C(=O)[C@@]2(C)[C@H]([C@H](OC(=O)c3ccccc3)[C@]3(O)C[C@H](OC(=O)[C@H](O)[C@@H](NC(=O)c4ccccc4)c4ccccc4)C(C)=C1C3(C)C)[C@]1(OC(C)=O)CO[C@@H]1C[C@@H]2O + Cc1cccc(N(C)C(=O)C2C(O)CCN2c2nc(C)cc(C(F)(F)F)c2C#N)c1 , pIC50 value reported: 5.84

Kindly note: 439559-082-T-J2-PDC spheroid viability, CC1COCCN1c1cc(-c2ccnn2C)c2ccnc(-c3ccn[nH]3)c2n1 (stereo not given) + Cc1cccc(N(C)C(=O)C2C(O)CCN2c2nc(C)cc(C(F)(F)F)c2C#N)c1 , pIC50 value reported: 6.54

Kindly note: 439559-082-T-J2-PDC spheroid viability, COc1cccc(OCCCN)c1-c1cc(Nc2cnc(C#N)cn2)n[nH]1 + Cc1cccc(N(C)C(=O)C2C(O)CCN2c2nc(C)cc(C(F)(F)F)c2C#N)c1 , pIC50 value reported: 6.54

Kindly note: 439559-082-T-J2-PDC spheroid viability, COc1cccc2c1C(=O)c1c(O)c3c(c(O)c1C2=O)CC(O)(C(=O)CO)CC3OC1CC(N)C(O)C(C)O1 (stereo not given) + COC1C(OC(N)=O)C(O)C(Oc2ccc3c(O)c(NC(=O)c4ccc(O)c(CC=C(C)C)c4)c(=O)oc3c2C)OC1(C)C , pIC50 value reported: 5.11

Kindly note: 439559-082-T-J2-PDC spheroid viability, COc1cccc(OCCCN)c1-c1cc(Nc2cnc(C#N)cn2)n[nH]1 + Nc1ccc(C#CCN(C(=O)Cc2ncc(C(F)(F)F)cc2C(F)(F)F)c2ccc(F)cc2)nn1 , pIC50 value reported: 6.65
